# target.or.test.system: Proton Pump (H^+/K^+-ATPase) (Sus scrofa, UniProt P19156)
# Sequence (P19156 2-1034 limits assumed): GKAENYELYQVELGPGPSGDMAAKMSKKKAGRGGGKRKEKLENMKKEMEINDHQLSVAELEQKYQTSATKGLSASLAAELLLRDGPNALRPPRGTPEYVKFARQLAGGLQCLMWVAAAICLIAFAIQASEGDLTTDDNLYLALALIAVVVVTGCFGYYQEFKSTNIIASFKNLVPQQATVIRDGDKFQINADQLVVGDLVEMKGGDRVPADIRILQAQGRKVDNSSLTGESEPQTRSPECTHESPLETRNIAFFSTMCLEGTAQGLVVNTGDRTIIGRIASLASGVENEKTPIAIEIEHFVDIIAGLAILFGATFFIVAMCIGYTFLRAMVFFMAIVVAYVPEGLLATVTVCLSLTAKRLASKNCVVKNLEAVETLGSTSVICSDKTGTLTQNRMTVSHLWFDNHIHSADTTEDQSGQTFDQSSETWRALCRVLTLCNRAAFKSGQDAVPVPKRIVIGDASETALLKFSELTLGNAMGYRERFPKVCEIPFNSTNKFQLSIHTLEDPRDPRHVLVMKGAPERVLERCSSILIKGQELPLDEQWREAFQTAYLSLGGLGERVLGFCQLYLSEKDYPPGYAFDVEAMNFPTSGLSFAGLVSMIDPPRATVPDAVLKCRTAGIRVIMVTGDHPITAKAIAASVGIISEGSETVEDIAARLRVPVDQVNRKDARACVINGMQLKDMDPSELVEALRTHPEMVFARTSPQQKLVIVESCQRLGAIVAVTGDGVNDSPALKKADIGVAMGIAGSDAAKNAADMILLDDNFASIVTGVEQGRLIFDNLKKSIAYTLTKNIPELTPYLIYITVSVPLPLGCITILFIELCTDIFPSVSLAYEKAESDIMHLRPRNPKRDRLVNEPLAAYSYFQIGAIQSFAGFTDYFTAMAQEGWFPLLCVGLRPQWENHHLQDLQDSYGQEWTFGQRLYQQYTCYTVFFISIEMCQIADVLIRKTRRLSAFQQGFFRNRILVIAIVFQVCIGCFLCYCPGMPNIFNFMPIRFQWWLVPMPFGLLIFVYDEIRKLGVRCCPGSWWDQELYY
# Sequence (P18434 whole entry partner): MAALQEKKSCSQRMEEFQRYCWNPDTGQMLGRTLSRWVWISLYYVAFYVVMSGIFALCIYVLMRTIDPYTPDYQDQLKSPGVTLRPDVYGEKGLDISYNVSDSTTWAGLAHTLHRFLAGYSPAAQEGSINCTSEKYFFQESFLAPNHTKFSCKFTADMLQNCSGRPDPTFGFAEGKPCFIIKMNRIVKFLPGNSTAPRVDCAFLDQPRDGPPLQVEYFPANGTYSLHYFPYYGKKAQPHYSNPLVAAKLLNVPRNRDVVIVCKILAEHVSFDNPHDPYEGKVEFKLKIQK
# measurement.description: Inhibitory effects on proton pump (H^+/K^+-ATPase) activity
# condition.info: hog gastric vesicles; K^+ stimulated H^+/K^+-ATPase activity; 30 minutes at 37° C.
pIC50: −log10 of the molar value. Counter-ions that a name gives are not always drawn.
experimental.endpoint: pIC50

compound	numeric.value
Cc1c(C)n(Cc2cccc(F)c2)c2c(N3CCc4ccc(F)cc4C3C)nccc12 (stereo not drawn) [Example 542, hydrochloride]	6.82
C=CCn1c(C)c(C)c2ccnc(N(C)Cc3ccc(F)cc3)c21 [Example 140, hydrochloride]	6.62
Cc1c(C)n(Cc2cccc(F)c2)c2c(N3CCc4ccccc4C3)nc(C(=O)N3CCOCC3)cc12 [Example 779, hydrochloride]	7.21
Cc1c(C)n(Cc2ccccc2)c2c(N3CCc4ccccc4C3)nccc12.Cl [Example 469, hydrochloride]	7.28
Cc1c(C)n(Cc2ccc(F)cc2)c2c(N3CCc4ccccc4C3)nc(C(=O)N3CCCCC3)cc12 [Example 797, hydrochloride]	6.54
COCn1c(C)c(C)c2ccnc(N3CCc4ccccc4C3)c21 [Example 496, hydrochloride]	6.64
CCCn1c(C)c(C)c2ccnc(N(C)Cc3ccc(F)cc3)c21 [Example 150, hydrochloride]	6.47
Cc1c(C)n(Cc2ccc(F)cc2)c2c(CCc3ccccc3)nccc12 [Example 455, hydrochloride]	6.40
CC(C)=CCn1c(C)c(C)c2ccnc(N3CCc4ccccc4C3)c21 [Example 475, hydrochloride]	6.52
Cc1c(C)n(Cc2ccccc2)c2c(N3CCc4ccccc4C3)nc(C(=O)N3CCOCC3)cc12 [Example 769, hydrochloride]	6.99
Cc1c(C)n(Cc2ccc(F)cc2)c2c(CN(C)c3ccc(F)cc3)nccc12 [Example 118, hydrochloride]	6.48
C=CCn1c(C)c(C)c2ccnc(N3CCc4ccccc4C3)c21 [Example 493, benzenesulfonate]	8.40
CCC1c2ccccc2CCN1c1nccc2c(C)c(C)n(CC=C(C)C)c12 (stereo not drawn) [Example 578, hydrochloride]	6.54
C=CCn1c(C)c(C)c2ccnc(-c3ccc(C)cc3)c21 [Example 277, hydrochloride]	6.89
Cc1c(C)n(Cc2cccc(F)c2)c2c(N3CCc4cc(F)ccc4C3C)nccc12 (stereo not drawn) [Example 565, hydrochloride]	6.48

====

# target.or.test.system: Proton Pump (H^+/K^+-ATPase) (Sus scrofa)
# measurement.description: Inhibitory effects on proton pump (H^+/K^+-ATPase) activity
# condition.info: hog gastric vesicles; K^+ stimulated H^+/K^+-ATPase activity; 30 minutes at 37° C.
pIC50: −log10 of the molar value. Counter-ions that a name gives are not always drawn.
experimental.endpoint: pIC50

compound	numeric.value
Cc1c(C)n(Cc2ccccc2)c2c(N3CCc4ccccc4C3)nc(C(=O)n3ccnc3)cc12 [Example 839, hydrochloride]	6.59
C#CCn1c(C)c(C)c2cc(C(=O)N3CCCCC3)nc(N3CCc4ccccc4C3)c21 [Example 802, hydrochloride]	7.10
Cc1c(C)n(Cc2cccc(Cl)c2)c2c(N3CCc4ccccc4C3)nc(C(=O)N3CCSCC3)cc12 [Example 790, hydrochloride]	6.89
Cc1c(C)n(Cc2ccccc2)c2c(C=Cc3ccccc3)nccc12 [Example 418, hydrochloride]	6.54
Cc1c(C)n(Cc2ccccc2)c2c(N3CCc4ccccc4C3)nc(C(=O)N3CCNCC3)cc12 [Example 812, hydrochloride]	7.68
COc1cccc(Cn2c(C)c(C)c3ccnc(COc4ccc(C)cc4C)c32)c1 [Example 68, hydrochloride]	6.67
C=CCn1c(C)c(C)c2ccnc(-c3ccc(SC)cc3)c21 [Example 263, hydrochloride]	7.12
C#CCn1c(C)c(C)c2ccnc(-c3ccc4ccccc4c3)c21 [Example 408, hydrochloride]	7.05
COc1cccc(Cn2c(C)c(C)c3ccnc(COc4ccc(C)cc4)c32)c1 [Example 16, hydrochloride]	6.74
COc1cccc(Cn2c(C)c(C)c3ccnc(N4CCc5ccccc5C4)c32)c1 [Example 510, hydrochloride]	7.25
COc1cccc(Cn2c(C)c(C)c3ccnc(COc4ccc(F)cc4)c32)c1 [Example 4, hydrochloride]	6.82
CCCn1c(C)c(C)c2cc(C(=O)N3CCNCC3)nc(N3CCc4ccccc4C3)c21 [Example 813, hydrochloride]	7.96
Cc1c(C)n(CC2CC2)c2c(N3CCc4ccccc4C3)nc(C(N)=O)cc12	5.39
Cc1c(C)n(Cc2cccc(F)c2)c2c(N3CCc4ccccc4C3)nc(C(=O)N3CCN(C)CC3)cc12 [Example 832, hydrochloride]	7.51
Cc1c(C)n(Cc2cccc(Cl)c2)c2c(N3CCc4ccccc4C3)nc(-c3nnn[nH]3)cc12	6.37
C=CCCn1c(C)c(C)c2cc(C#N)nc(N3CCc4ccccc4C3)c21	5.81
COCCn1c(C)c(C)c2ccnc(CN(C)c3ccc(F)cc3)c21 [Example 120, hydrochloride]	6.35
COc1cccc(Cn2c(C)c(C)c3cc(C(=O)n4ccnc4)nc(N4CCc5ccccc5C4)c32)c1 [Example 841, hydrochloride]	6.62
CC=CCn1c(C)c(C)c2ccnc(NCc3ccccc3)c21 [Example 183, hydrochloride]	6.66
CCn1c(C)c(C)c2cc(C(=O)O)nc(N3CCc4ccccc4C3)c21	6.48
CCn1c(C)c(C)c2cc(C(=O)N3CCCCC3)nc(N3CCc4ccccc4C3)c21 [Example 787, hydrochloride]	8.96
COc1ccc(Cn2c(C)c(C)c3ccnc(N(C)Cc4ccc(F)cc4)c32)cc1 [Example 156, hydrochloride]	6.51
Cc1c(C)n(Cc2cccc(Cl)c2)c2c(N3CCc4ccccc4C3)nc(C(=O)N3CCCCC3)cc12 [Example 799, hydrochloride]	6.79
Cc1c(C)n(Cc2ccccc2)c2c(-c3ccc(Cl)cc3)nccc12 [Example 301, hydrochloride]	6.42
CSc1ccc(-c2nccc3c(C)c(C)n(Cc4ccccc4)c23)cc1 [Example 268, hydrochloride]	6.89
Cc1c(C)n(Cc2cccc(F)c2)c2c(N3CCc4ccccc4C3)nc(C(=O)n3ccnc3)cc12 [Example 840, hydrochloride]	6.77
CCn1c(C)c(C)c2ccnc(N3CCc4ccccc4C3C)c21 (stereo not drawn) [Example 554, hydrochloride]	7.23
CCn1c(C)c(C)c2cc(C(=O)N3CCCC3)nc(N3CCc4ccccc4C3)c21 [Example 803, hydrochloride]	7.46
C=CCn1c(C)c(C)c2cc(C(=O)N3CCCCC3)nc(N3CCc4ccccc4C3)c21 [Example 786, hydrochloride]	7.82
Cc1c(C)n(Cc2ccc(F)cc2)c2c(N3CCc4ccccc4C3)nccc12 [Example 471, hydrochloride]	6.64
